target.or.test.system: colonic secretory chloride channel
run.description: Single chloride channels from rat colonic enterocyte plasma membrane vesicles incorporated into planar lipid bilayers; calixarene added to the cis (outer membrane) side
Assay type: biochemical
assay.context: single channel in planar bilayer, Table 1; read-out: Ki (concentration causing a half-maximal inhibition)
observable: Ki

O=S(=O)(O)c1cc2c(O)c(c1)Cc1cc(S(=O)(=O)O)cc(c1O)Cc1cc(S(=O)(=O)O)cc(c1O)Cc1cc(S(=O)(=O)O)cc(c1O)Cc1cc(S(=O)(=O)O)cc(c1O)Cc1cc(S(=O)(=O)O)cc(c1O)C2    400 to 500 nM
O=S(=O)(O)c1cc2c(O)c(c1)Cc1cc(S(=O)(=O)O)cc(c1O)Cc1cc(S(=O)(=O)O)cc(c1O)Cc1cc(S(=O)(=O)O)cc(c1O)C2 [5,11,17,23-TETRASULFONATO-CALIX[4]ARENE, 5,11,17,23-tetrasulfonato-calix[4]arene]    800 to 900 nM
O=S(=O)(O)c1cc2c(O)c(c1)Cc1cc(S(=O)(=O)O)cc(c1O)Cc1cc(S(=O)(=O)O)cc(c1O)Cc1cc(S(=O)(=O)O)cc(c1O)Cc1cc(S(=O)(=O)O)cc(c1O)Cc1cc(S(=O)(=O)O)cc(c1O)Cc1cc(S(=O)(=O)O)cc(c1O)Cc1cc(S(=O)(=O)O)cc(c1O)C2    < 50 nM

Prompt: Query Ki on colonic secretory chloride channel for `COc1c2cc(S(=O)(=O)O)cc1Cc1cc(S(=O)(=O)O)cc(c1OC)Cc1cc(S(=O)(=O)O)cc(c1OC)Cc1cc(S(=O)(=O)O)cc(c1OC)C2`
Completion: < 3 nM
